// Hepatotoxicity HepSE_hepatitis records
# respond with the number and nothing more

CC1(C)S[C@@H]2[C@H](NC(=O)[C@H](N)c3ccc(O)cc3)C(=O)N2[C@H]1C(=O)O [AMOXICILLIN] = 1
CCN(CC)CCOC(=O)c1ccc(N)cc1Cl [CHLOROPROCAINE] = 0
C#Cc1cccc(Nc2ncnc3cc(OCCOC)c(OCCOC)cc23)c1 [ERLOTINIB] = 0
CC(=O)N(CC(O)CN(C(C)=O)c1c(I)c(C(=O)NCC(O)CO)c(I)c(C(=O)NCC(O)CO)c1I)c1c(I)c(C(=O)NCC(O)CO)c(I)c(C(=O)NCC(O)CO)c1I (configuration not stated) [IODIXANOL] = 0
COc1c2occc2cc2ccc(=O)oc12 [METHOXSALEN] = 0
CC(N)C12CC3CC(CC(C3)C1)C2 (configuration not stated) [RIMANTADINE] = 0
FC(F)OC(F)C(F)(F)F (configuration not stated) = 1
CC(C)(Oc1ccc(CCNC(=O)c2ccc(Cl)cc2)cc1)C(=O)O [BEZAFIBRATE] = 0

INPUT: Give HepSE_hepatitis for this entry on Hepatotoxicity: NCCCC[C@H](N[C@@H](CCc1ccccc1)C(=O)O)C(=O)N1CCC[C@H]1C(=O)O [LISINOPRIL ANHYDROUS]
OUTPUT: 1

INPUT: Give HepSE_hepatitis for this entry on Hepatotoxicity: CCCN1C[C@H](CSC)C[C@@H]2c3cccc4[nH]cc(c34)C[C@H]21 [PERGOLIDE]
OUTPUT: 1

INPUT: Give HepSE_hepatitis for this entry on Hepatotoxicity: Nc1ccn(C[C@@H](CO)OCP(=O)(O)O)c(=O)n1.O.O [CIDOFOVIR]
OUTPUT: 1

INPUT: Give HepSE_hepatitis for this entry on Hepatotoxicity: C[C@]12C=CC(=O)N[C@@H]1CC[C@@H]1[C@@H]2CC[C@]2(C)[C@@H](C(=O)Nc3cc(C(F)(F)F)ccc3C(F)(F)F)CC[C@@H]12 [DUTASTERIDE]
OUTPUT: 0

INPUT: Give HepSE_hepatitis for this entry on Hepatotoxicity: [Cl-].[K+] [POTASSIUM CHLORIDE]
OUTPUT: 0

INPUT: Give HepSE_hepatitis for this entry on Hepatotoxicity: C[C@@H]1[C@H](O)[C@@H](C)/C=C/C=C/C=C/C=C/C=C/C=C/C=C/[C@H](O[C@@H]2O[C@H](C)[C@@H](O)[C@H](N)[C@@H]2O)C[C@@H]2O[C@](O)(C[C@@H](O)C[C@@H](O)[C@H](O)CC[C@@H](O)C[C@@H](O)CC(=O)O[C@H]1C)C[C@H](O)[C@H]2C(=O)O [AMPHOTERICIN B]
OUTPUT: 1

INPUT: Give HepSE_hepatitis for this entry on Hepatotoxicity: COc1c(N2CCNC(C)C2)c(F)cc2c(=O)c(C(=O)O)cn(C3CC3)c12 (configuration not stated) [GATIFLOXACIN]
OUTPUT: 1

INPUT: Give HepSE_hepatitis for this entry on Hepatotoxicity: CN(C)CCCN1c2ccccc2CCc2ccccc21 [IMIPRAMINE]
OUTPUT: 0

INPUT: Give HepSE_hepatitis for this entry on Hepatotoxicity: COc1ccc(C(=O)Nc2ccccc2CCC2CCCCN2C)cc1 (configuration not stated) [ENCAINIDE]
OUTPUT: 1

---

// Hepatotoxicity HepSE_liver function tests abnormal records
# respond with the number and nothing more

Example compounds with recorded HepSE_liver function tests abnormal:
C[C@](N)(Cc1ccc(O)c(O)c1)C(=O)O = 1
Nc1nc(Cl)nc2c1ncn2[C@H]1C[C@H](O)[C@@H](CO)O1 = 0
COc1cccc2c1C(=O)c1c(O)c3c(c(O)c1C2=O)C[C@@](O)(C(=O)CO)C[C@@H]3O[C@H]1C[C@H](N)[C@H](O)[C@H](C)O1 = 1

Next:
INPUT: Give HepSE_liver function tests abnormal for this entry on Hepatotoxicity: CC(=O)N(CC(O)CN(C(C)=O)c1c(I)c(C(=O)NCC(O)CO)c(I)c(C(=O)NCC(O)CO)c1I)c1c(I)c(C(=O)NCC(O)CO)c(I)c(C(=O)NCC(O)CO)c1I (centres undefined)
OUTPUT: 0

---

// Hepatotoxicity HepSE_elevated liver function tests records
# respond with the number and nothing more

Example molecules with recorded HepSE_elevated liver function tests:
Cc1onc(-c2ccccc2)c1-c1ccc(S(N)(=O)=O)cc1 = 0
CCN[C@H]1CN(CCCOC)S(=O)(=O)c2sc(S(N)(=O)=O)cc21 [BRINZOLAMIDE] = 0
CCCCCCCN(CC)CCCC(O)c1ccc(NS(C)(=O)=O)cc1 (stereo not given) [IBUTILIDE] = 1
Cc1c(-c2ccccc2)oc2c(C(=O)OCCN3CCCCC3)cccc2c1=O [FLAVOXATE] = 0

Next:
INPUT: Could you please provide reported HepSE_elevated liver function tests for "CC(C)[N+](C)(CCOC(=O)C1c2ccccc2Oc2ccccc21)C(C)C" ? Thanks!
OUTPUT: 0

---

Here, each record is paired with measured HepSE_hepatomegaly data.
# Tested on: Hepatotoxicity
# respond with the number and nothing more

Example compounds with recorded HepSE_hepatomegaly:
C[N+](C)(C)CCO.Cn1c(=O)c2[n-]cnc2n(C)c1=O [OXTRIPHYLLINE] = 0
CC(C)(C)NC[C@H](O)COc1nsnc1N1CCOCC1 [TIMOLOL] = 1
CN1C[C@H](C(=O)N[C@]2(C)O[C@@]3(O)[C@@H]4CCCN4C(=O)[C@H](Cc4ccccc4)N3C2=O)C=C2c3cccc4[nH]cc(c34)C[C@H]21 [ERGOTAMINE] = 0
C[N+](C)(C)CC(O)CC(=O)[O-] (centres undefined) [CARNITINE] = 0
[Cl-].[K+] [POTASSIUM CHLORIDE] = 0

INPUT: Give HepSE_hepatomegaly for this entry on Hepatotoxicity: CNC1(C)C2CCC(C2)C1(C)C (centres undefined) [MECAMYLAMINE]
OUTPUT: 0

INPUT: Give HepSE_hepatomegaly for this entry on Hepatotoxicity: CC1(C)S[C@@H]2[C@H](NC(=O)[C@H](N)c3ccc(O)cc3)C(=O)N2[C@H]1C(=O)O [AMOXICILLIN]
OUTPUT: 0

INPUT: Give HepSE_hepatomegaly for this entry on Hepatotoxicity: CC(C)(O)c1ccccc1CC[C@@H](SCC1(CC(=O)O)CC1)c1cccc(/C=C/c2ccc3ccc(Cl)cc3n2)c1 [MONTELUKAST]
OUTPUT: 0

INPUT: Give HepSE_hepatomegaly for this entry on Hepatotoxicity: NC(=O)N1c2ccccc2C=Cc2ccccc21 [CARBAMAZEPINE]
OUTPUT: 0

---

# System: Hepatotoxicity
Here, each record is paired with measured HepSE_hepatic failure data.
# respond with the number and nothing more

CARBOPLATIN = 0

INPUT: Give HepSE_hepatic failure for this entry on Hepatotoxicity: "GADOBUTROL"
OUTPUT: 0

INPUT: Give HepSE_hepatic failure for this entry on Hepatotoxicity: GLATIRAMER ACETATE
OUTPUT: 0

INPUT: Give HepSE_hepatic failure for this entry on Hepatotoxicity: "COLESTIPOL"
OUTPUT: 0

INPUT: Give HepSE_hepatic failure for this entry on Hepatotoxicity: GOLD SODIUM THIOMALATE
OUTPUT: 1

INPUT: Give HepSE_hepatic failure for this entry on Hepatotoxicity: "BLEOMYCIN"
OUTPUT: 0

---

# System: Hepatotoxicity
Here, each record is paired with measured HepSE_bilirubinemia data.
# respond with the number and nothing more

INPUT: Could you please provide reported HepSE_bilirubinemia for "C[C@]12CC[C@@H]3c4ccc(OC(=O)N(CCCl)CCCl)cc4CC[C@H]3[C@@H]1CC[C@@H]2O" ? Thanks!
OUTPUT: 0

INPUT: Could you please provide reported HepSE_bilirubinemia for "OC[C@H]1O[C@@H](n2cnc3c2NC=NC[C@H]3O)C[C@@H]1O" ? Thanks!
OUTPUT: 0

INPUT: Could you please provide reported HepSE_bilirubinemia for "NC(=O)CC[C@@H]1NC(=O)[C@H](Cc2ccccc2)NC(=O)[C@H](Cc2ccc(O)cc2)NC(=O)CCSSC[C@@H](C(=O)N2CCC[C@H]2C(=O)N[C@H](CCCN=C(N)N)C(=O)NCC(N)=O)NC(=O)[C@H](CC(N)=O)NC1=O" ? Thanks!
OUTPUT: 0

INPUT: Could you please provide reported HepSE_bilirubinemia for "FCOC(C(F)(F)F)C(F)(F)F" ? Thanks!
OUTPUT: 1

INPUT: Could you please provide reported HepSE_bilirubinemia for "CCCCCN(C)CCC(O)(P(=O)(O)O)P(=O)(O)O" ? Thanks!
OUTPUT: 0

INPUT: Could you please provide reported HepSE_bilirubinemia for COc1ccnc(C[S+]([O-])c2nc3ccc(OC(F)F)cc3[nH]2)c1OC (configuration not stated) ? Thanks!
OUTPUT: 1

INPUT: Could you please provide reported HepSE_bilirubinemia for "O=C1c2cccc3c2[C@H](CCC3)CN1[C@@H]1CN2CCC1CC2" ? Thanks!
OUTPUT: 0
